Hey, just so you know, these numbers are from patent US20060063755A1.

- measured on: alpha 2 receptors
- assay method text: Alpha 2 receptor binding assay
- assay setup: read-out: Ki Alpha2
pKi: −log10 of the molar value.
parameter measured: pKi

| molecule | pKi |
| --- | --- |
| CC(C)(CCN1CCN(C2=Nc3ccccc3Oc3ccccc32)CC1)C(=O)O [Compound 3] | < 5.00 |
| COc1ccc2c(c1)Oc1ccc(OC)cc1C(N1CCN(CC(C)(C)C(=O)O)CC1)=N2 [Compound 35] | < 5.00 |
| CC(C)(CN1CCN(C2=Nc3ccccc3Oc3ccc(Br)cc32)CC1)C(=O)O [Compound 8] | < 5.00 |
| Cc1ccc2c(c1)C(N1CCN(CC(C)(C)C(=O)O)CC1)=Nc1ccccc1O2 [Compound 10] | < 5.00 |
| CC(C)(CCN1CCN(C2=Nc3ccccc3Oc3ccc(Cl)cc32)CC1)C(=O)O [Compound 6] | < 5.00 |

What value of pKi has been reported for the following molecule? Cc1ccc2c(c1)C(N1CCN(CC(C)(C)C(=O)O)CC1)=Nc1cc(Br)ccc1O2 [Compound 50]
5.71
